Every entry's value here was drawn from patent US9150568B2.

# system.name: human Farnesoid X Receptor (FXR) ligand binding domain (GST-FXR LBD) (Homo sapiens)
# Construct: purchased Invitrogen
# Sequence (Q96RI1 193-472 isoform Q96RI1-2): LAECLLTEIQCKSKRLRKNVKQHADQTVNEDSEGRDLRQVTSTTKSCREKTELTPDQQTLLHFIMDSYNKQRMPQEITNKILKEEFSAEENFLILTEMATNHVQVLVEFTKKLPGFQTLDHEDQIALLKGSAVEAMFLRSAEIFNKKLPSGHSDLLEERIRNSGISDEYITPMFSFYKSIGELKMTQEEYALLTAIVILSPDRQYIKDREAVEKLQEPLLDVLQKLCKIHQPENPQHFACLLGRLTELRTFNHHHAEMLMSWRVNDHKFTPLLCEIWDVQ
# method: Human GST-FXR LBD co-activator interaction assay (HTRF)
# Assay type: biochemical
# study.conditions: GST-FXR LBD / biotin-SRC-1 peptide FRET; response relative to GW4064; read-out: FXR Co-activator interaction assay (EC50)
measurement.label: pEC50
The read-out pEC50 is expressed as -log10 of concentration in moles per litre.

Below, 5 compounds whose answers are already recorded.
• Cc1cc(C(=O)O)nc(N2C3CC[C@H]2CC(OCc2c(-c4ccccc4F)noc2C2CC2)C3)n1 (some centres unmarked) = 7.89
• CC(C)(O)c1ccc2nc(N3C4CC[C@H]3CC(OCc3c(-c5ccccc5OC(F)(F)F)noc3C3CC3)C4)sc2c1 (some centres unmarked) = 7.66
• COC(=O)c1ccnc(N2C3CC[C@H]2CC(OCc2c(-c4ccccc4C(F)(F)F)noc2C2CC2)C3)n1 (some centres unmarked) = 6.96
• O=C(O)c1ccc(N2C3CC[C@H]2CC(OCc2c(-c4ccccc4C(F)(F)F)noc2C2CC2)C3)c(F)c1 (some centres unmarked) = 9.00
• O=C(O)c1ccc(N2C3CC[C@H]2CC(OCc2c(-c4c(F)cccc4F)noc2C2CC2)C3)c(F)c1 (some centres unmarked) = 9.05

I would be grateful if you could share the reported pEC50 for O=C(O)c1cnc(N2[C@@H]3CC[C@H]2C[C@@H](OCc2c(-c4c(F)cccc4F)noc2C2CC2)C3)cn1 [Example 22-15B] .
7.55

Returns the measured pEC50 for the input compound. Input: O=C(O)c1cc2ccc(N3C4CC[C@H]3CC(OCc3c(-c5ccccc5OC(F)(F)F)noc3C3CC3)C4)cc2o1 (some centres unmarked)
8.47

// returns reported pEC50 for input O=C(O)CNC(=O)c1ccc(N2C3CC[C@H]2C[C@H](OCc2c(-c4ccccc4OC(F)(F)F)noc2C2CC2)C3)nc1
7.77

Endpoint output: pEC50 of O=C(O)c1nsc2cc(N3C4CC[C@H]3CC(OCc3c(-c5ccccc5C(F)(F)F)noc3C3CC3)C4)ccc12 (some centres unmarked) . Value?
8.66

For Cc1cc(C(=O)O)nc(N2C3CC[C@H]2C[C@H](OCc2c(C4CCCCC4)noc2C2CC2)C3)n1 , what is its reported pEC50?
6.89
